We begin with a simple list: items and their reported inhibition.
systemTested: Forkhead box protein O1 (Homo sapiens)
assayProtocol: Inhibition of FoxO signaling pathway in human HeLa cells assessed as inhibition of luciferase at 100 uM […]
Type: cell-based

Please review the following examples before continuing.
>>> value("COc1cc(/C=C\\c2ccc(OC)c(OC)c2)cc(OC)c1 [(Z)-3,4,3',5'-TETRAMETHOXYSTILBENE]")
"< 40%"
>>> value("COc1cc(/C=C/c2ccc(OC)c(OC)c2)cc(OC)c1 [(E)-3,4,3',5'-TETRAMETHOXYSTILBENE]")
"< 40%"

We now examine a further compound.
input: Query inhibition for Oc1ccc(/C=C/c2cc(O)cc(O)c2)cc1
output: < 40%

----------
systemTested: Nitric oxide synthase, inducible (Mus musculus, UniProt P29477)
Sequence (P29477 whole entry): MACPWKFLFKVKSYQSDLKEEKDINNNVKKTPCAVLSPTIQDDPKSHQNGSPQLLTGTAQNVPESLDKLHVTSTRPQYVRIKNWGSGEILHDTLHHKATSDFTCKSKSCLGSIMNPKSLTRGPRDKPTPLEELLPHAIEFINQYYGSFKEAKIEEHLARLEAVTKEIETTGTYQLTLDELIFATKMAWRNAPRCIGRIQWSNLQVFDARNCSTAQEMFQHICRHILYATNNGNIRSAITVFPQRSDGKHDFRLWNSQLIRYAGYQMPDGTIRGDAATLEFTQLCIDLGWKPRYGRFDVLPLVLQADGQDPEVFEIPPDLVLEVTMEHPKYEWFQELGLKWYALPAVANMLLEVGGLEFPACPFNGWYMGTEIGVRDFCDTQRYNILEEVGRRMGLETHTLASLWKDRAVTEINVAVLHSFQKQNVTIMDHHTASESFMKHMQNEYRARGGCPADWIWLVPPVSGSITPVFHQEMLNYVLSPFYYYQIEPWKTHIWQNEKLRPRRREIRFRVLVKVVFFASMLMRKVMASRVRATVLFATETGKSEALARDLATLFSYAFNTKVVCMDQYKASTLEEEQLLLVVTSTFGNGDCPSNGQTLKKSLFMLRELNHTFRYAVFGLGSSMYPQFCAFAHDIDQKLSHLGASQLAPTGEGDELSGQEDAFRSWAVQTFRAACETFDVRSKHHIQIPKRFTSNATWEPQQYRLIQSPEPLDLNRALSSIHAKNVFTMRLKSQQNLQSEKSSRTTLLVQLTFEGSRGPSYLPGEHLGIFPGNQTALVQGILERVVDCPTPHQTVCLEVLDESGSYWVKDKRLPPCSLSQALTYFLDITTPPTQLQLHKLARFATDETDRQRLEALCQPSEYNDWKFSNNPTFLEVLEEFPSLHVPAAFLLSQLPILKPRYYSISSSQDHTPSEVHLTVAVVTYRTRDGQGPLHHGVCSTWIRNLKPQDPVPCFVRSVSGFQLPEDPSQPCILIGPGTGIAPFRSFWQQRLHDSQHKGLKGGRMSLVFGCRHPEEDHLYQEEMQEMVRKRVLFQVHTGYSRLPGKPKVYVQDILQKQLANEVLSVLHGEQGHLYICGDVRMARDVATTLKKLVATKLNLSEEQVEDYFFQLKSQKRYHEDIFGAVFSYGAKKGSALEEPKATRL
assayProtocol: Inhibition of iNOS in LPS-induced mouse RAW264.7 cells assessed as inhibition of […] at measured after 24 hrs
Format: cell-based
parameter: IC50 (µM)
Answer with a number only, understood to be in µM.

input: GET IC50 | system: Nitric oxide synthase, inducible (Mus musculus, UniProt P29477) | item: C=C1C(=O)O[C@@H]2C3O[C@]3(C)CC/C=C(\C)CC[C@@H]12 (stereo partly specified)
output: 8

----------
We begin with a simple list: items and their reported IC50.
Test system: HeLa
assayProtocol: Inhibition of Stat3 signaling pathway in human HeLa cells assessed as inhibition of IL-6 induced luciferase treated 30 mins before induction
Type: functional, cell-based
Answer with a number only, understood to be in µM.

>>> value("Oc1ccc(/C=C/c2cc(O)cc(O)c2)cc1")
70

We now examine a further molecule.
input: Query IC50 for COc1cc(/C=C\c2ccc(OC)c(OC)c2)cc(OC)c1 [(Z)-3,4,3',5'-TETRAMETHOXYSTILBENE]
output: 50
